Target: human RORγt LBD (Homo sapiens (Human), UniProt P51449)
Sequence (P51449 258-518): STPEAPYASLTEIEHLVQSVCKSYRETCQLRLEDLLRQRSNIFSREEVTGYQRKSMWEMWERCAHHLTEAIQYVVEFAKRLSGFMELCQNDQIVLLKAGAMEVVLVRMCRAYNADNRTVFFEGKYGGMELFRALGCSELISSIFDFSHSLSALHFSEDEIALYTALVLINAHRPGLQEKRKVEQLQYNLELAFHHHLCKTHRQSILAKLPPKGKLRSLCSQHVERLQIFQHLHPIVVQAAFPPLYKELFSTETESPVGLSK
Experiment: RORγt reporter assay (GAL4-RORγt LBD luciferase, HEK293T cells)
Assay type: cell-based
Conditions: 6 μM, HEK293T cells
Excerpt: A reporter assay was used to test functional activity of RORγt modulatory compounds on transcriptional activation driven by the RORγt LBD. Cells used in the assay were co-transfected with two constructs. The first construct, pBIND-RORγt LBD, contained the wild type human RORγt LBD fused to the DNA binding domain of the GAL4 protein. The second construct, pGL4.31 (Promega Cat no. C935A), contained multiple GAL4 responsive DNA elements upstream of firefly luciferase. […]
Everything with RORγt reporter Assay, % inhibition @ 6 μM lower than 90% is 0; everything else, including exactly 90%, is 1.

>  <molecule>
CCN(CC)c1nc2ccc(C(O)(c3ccc(Cl)cc3)c3cncn3C)cc2c(Cl)c1Oc1ccccc1 (single isomer, unassigned) [Example 3c]

>  <classification>
1

$$$$
>  <molecule>
CCOc1nc2ccc(C(O)(c3ccc(C(F)(F)F)nc3)c3cncn3C)cc2c(Cl)c1Oc1ccc(F)cc1 (single isomer, unassigned) [Example 14b]

>  <classification>
0

$$$$
>  <molecule>
CCN(CC)c1nc2ccc(C(O)(c3ccc(Cl)cc3)c3cncn3C)cc2c(Cl)c1Oc1ccccc1 (single isomer, unassigned) [Example 3b]

>  <classification>
0

$$$$
>  <molecule>
CCOc1nc2ccc(C(O)(c3ccc(OC)nc3)c3cncn3C)cc2c(Cl)c1Oc1ccccc1 (single isomer, unassigned) [Example 10b]

>  <classification>
1

$$$$

Task: Quick check, RORγt reporter Assay, % inhibition @ 6 μM >= 90%? CCN(CC)c1nc2ccc(C(O)(c3ccc(OC)nc3)c3cncn3C)cc2c(Cl)c1Oc1ccccc1 (single isomer, unassigned) [Example 5c]
Output: 1

Origin of values: patent US9303015B2
